tested on: HAP1 MTAP-intact cell line; assay: SDMA in-cell western assay, HAP1 MTAP-intact; format: cell-based; conditions: Homo sapiens, HAP1, SDMA in-cell western, HAP1 MTAP-intact; read-out: MTAP HAP1 intact IC50
pIC50: −log10 of the molar value.
OUTCOME MEASURE: pIC50

>>> observed_measurement("CCc1cc(NC(=O)C(=O)N2C[C@@H](C)CC[C@@H]2c2ccc(OCCN(C)C)c(Cl)c2)cnc1N (racemic)")
"> 7.00"
>>> observed_measurement("C[C@@H]1CC[C@@H](c2ccc3sc(CCN(C)C)nc3c2)N(C(=O)C(=O)Nc2cncc(C(N)=O)c2)C1 (racemic)")
"6.00 to 7.00"
>>> observed_measurement("Cc1ncc(NC(=O)C(=O)N2C[C@H](C)CC[C@H]2c2ccc3c(c2)CCC(=O)N3)cc1Cl (single isomer, unassigned)")
"< 6.00"
>>> observed_measurement("Cc1cncc(NC(=O)C(=O)N2C[C@H](C)CC[C@H]2c2ccc(C)c(C)c2)c1 (single isomer, unassigned)")
"< 6.00"
>>> observed_measurement("CCc1cc(NC(=O)C(=O)N2C[C@@H](C)CC[C@@H]2c2ccc(N3CCN(C)C[C@@H]3C)nc2)cnc1N (racemic)")
"6.00 to 7.00"

Alright, here's another molecule for you.
Look up pIC50 for this molecule: Cc1cc(NC(=O)C(=O)N2C[C@@H](C)CC[C@@H]2c2cc(F)c(F)c(F)c2)cnc1N (single isomer, unassigned) < 6.00
